Assay: Mean pharmacokinetic parameters of Mycophenolic acid following single oral administration of Mycophenolic acid delayed-release tablets to adult or pediatric (age range 5 to 16 years) renal transplant patients on Cyclosporine, USP MODIFIED based immunosuppression
Type: ADME, organism-based
Set-up: dose 450 mg/m-2, dose 1 g, dose 720 mg, route oral
Details: human, in vivo
Value kind: Tmax (h)
// units = h; emit number, no label

Entry `COc1c(C)c2c(c(O)c1C/C=C(\C)CCC(=O)O)C(=O)OC2` — recorded Tmax = 2.5

###

Test: Mean pharmacokinetic parameters of Mycophenolic acid following single oral administration of Mycophenolic acid delayed-release tablets to adult or pediatric (age range 5 to 16 years) renal transplant patients on Cyclosporine, USP MODIFIED based immunosuppression
Format: ADME, organism-based
Parameters: dose 450 mg/m-2, dose 1 g, dose 720 mg, route oral
Conditions: human, in vivo
Value kind: Cmax
Form entry: enter the amount, then its unit.

Entry COc1c(C)c2c(c(O)c1C/C=C(\C)CCC(=O)O)C(=O)OC2 [MYCOPHENOLIC ACID] — recorded Cmax = 36300 ng/mL
